- Tested on: NCI-H226 lung
- ASSAY_OVERVIEW: NCI tumour cell line growth inhibition, 48 h; in the data active = GI50 below about 0.43 µM; inactive = the rest
# output must be one of active, inactive

Use the examples below as a reference point.
Cc1cc(O)c(C2=NN(c3ccc(S(N)(=O)=O)cc3)C(c3ccccc3O)C2)cc1Cl (stereo unspecified) ... inactive
COc1ccc(-c2ccc3ncc4c(c3c2)n(-c2ccc(N3CCNCC3)c(C(F)(F)F)c2)c(=O)n4C)cn1 ... active

query: Per the records of this test, what outcome belongs to CSC1=Nc2c(c(C)c(-c3ccccc3)n2CCCCl)C2=NC(=O)CN12 ?
result: inactive

query: Recorded call for COc1cc(/C=C2\CCCC3C2=Nc2ccccc2NC3c2cc(OC)c(OC)c(OC)c2)cc(OC)c1OC (stereo unspecified) ?
result: inactive

query: Query: recorded result category for COc1ccc2c(c1)C(=O)c1c-2c(OCCN(C)C)nc2cc(OC)ccc12 in this test
result: inactive

query: Hi, sorry to bother you, what did the test record for COc1cc2cn3c4ccc(O)cc4nc(N)c3c2cc1OC ?
result: active

query: For this molecule, state the assay outcome: Cc1cc(C(=O)N[C@@H](CCC(=O)O)C(=O)O)sc1CC[C@@H]1CNc2nc(N)[nH]c(=O)c2C1
result: active

query: // return assay outcome for COc1ccc2c(O)c(/C=C3\N=Nc4ncccc43)oc2c1C[C@H]1CCNC[C@H]1F
result: active

query: Record request — test call for NC(=O)c1ccc2nc(-c3ccc(C4(N)CCC4)cc3)c(-c3ccccc3)n2n1
result: inactive

query: For this molecule, state the assay outcome: COc1cc(-c2nc(-c3nnc(-c4ccc(F)c(Cl)c4)o3)c3ccccn23)cc(OC)c1OC
result: inactive

query: Hello, I am checking results. What call was entered for O=S(=O)(CC#CCCCOCC#Cc1ccccc1C#CCS(=O)(=O)c1ccccc1)c1ccccc1 ?
result: inactive

----------
- Test system: SN12C renal
- ASSAY_OVERVIEW: NCI tumour cell line growth inhibition, 48 h
ASSAY_ENDPOINT: GI50

Use the examples below as a reference point.
NC(=O)c1ccc2nc(-c3ccc(C4(N)CCC4)cc3)c(-c3ccccc3)n2n1 ... 12 µM
COc1ccc(C2=CC(c3ccc(Oc4ccnc5cc(Cl)ccc45)c(OC)c3)c3c(nc(OC)[nH]c3=O)N2)cc1 (configuration not stated) ... 7.03 µM
OC(COc1cccc2ccccc12)CN1CCN(c2ccc(Cl)cc2)CC1 (configuration not stated) ... 51 µM

The recorded GI50 for Cc1cc(S(N)(=O)=O)c(S/C(=N\Nc2ccc([N+](=O)[O-])cc2)c2ccc(O)cc2)cc1Cl is 2.38 µM

The value of GI50 measured for the compound C=CC[N+]1(CCO)CCN=C1CCCCCCCCCCCCC (configuration not stated) turned out to be 1.46 µM

What the record says about N=C(N)c1ccc(-c2ccc(-c3cncc4ccccc34)s2)cc1F : GI50 is 1.85 µM

GI50 reading for CCOC(=O)/C(=C/c1ccccc1)C(=O)c1ccccc1 : 3.21 µM

----------
- Test system: MOLT-4 leukemia
- ASSAY_OVERVIEW: NCI tumour cell line growth inhibition, 48 h
# TGI annotations
The response must be a number in µM with no trailing unit.

Some compounds with recorded TGI:
C[n+]1c2cc(N)ccc2cc2ccc(N)cc21 (tested in a mixture with another compound) ... 0.746
CN(CCCCN1CCCC1)CCCCN(C)C(=O)Cc1ccc(Cl)c(Cl)c1 ... 22.1
COc1ccc2c(c1)CC[C@@H]1[C@@H]2CC[C@]2(C)c3[nH]ncc3C[C@@H]12 ... 40.6
COc1cc(-c2cc(-c3nc4cc(Cl)c(Cl)cc4[nH]3)[nH]n2)cc(OC)c1OC ... 6.29
CC(C)(C)CC(C)(C)N(CSc1ccc(Cl)cc1)CSc1ccc(Cl)cc1 ... 5.09
CCOc1ccccc1NC(=O)C(=O)C(C(=O)c1ccc2ccccc2c1)C1OC(=O)c2ccccc21 (stereo unspecified) ... 30.3
O=C(CCc1ccco1)NC1CCN(CC2(c3ccc(Cl)cc3)CCC2)CC1 ... 32.9
Cc1cc(C)c(S(=O)(=O)N(CCCCCCN)OCCCN)c(C)c1 ... 34.4
COc1ccc2c(c1)CCC(CN1CCN(CCOC(c3ccc(F)cc3)c3ccc(F)cc3)CC1)C2O (stereo unspecified) ... 36.2
CCNc1nc(N)c(C(=O)c2cccs2)s1 ... 60.7

Record COc1ccc2c(O)c(/C=C3\N=Nc4ncccc43)oc2c1C[C@H]1CCNC[C@H]1F / MOLT-4 leukemia, TGI recorded as 1.62

Record COc1ccc2[nH]c3c([N+](=O)[O-])ccc(Cl)c3c(=O)c2c1 / MOLT-4 leukemia, TGI recorded as 12.8

Fill in: MOLT-4 leukemia TGI for Clc1nc(Cl)c2ncn(C/C=C/Cn3cnc4c(Cl)nc(Cl)nc43)c2n1 = 37.4

Measured TGI (MOLT-4 leukemia), entry CC(C)(C)OC(=O)N1CC(Cn2cc(C(F)(F)F)c3c(Cl)ncnc32)C1 : 6.28

Observed TGI on MOLT-4 leukemia, entry COc1cc(/C=C2\CCCC3C2=Nc2ccccc2NC3c2cc(OC)c(OC)c(OC)c2)cc(OC)c1OC (stereo unspecified) , equals 5.4

Result for CCOC(=O)C12CCSC1C1(C#N)C(C#N)=CC2(N=P(c2ccccc2)(c2ccccc2)c2ccccc2)n2c(=O)n(-c3ccccc3)c(=O)n21 (stereo unspecified) , tested on MOLT-4 leukemia, TGI: 88.1

Field TGI (MOLT-4 leukemia), entry CCOC(=O)c1ccc(NC(=O)O/N=C(/Cl)C(C)C)cc1 : 4.63

----------
- Test system: RXF 393 renal
- ASSAY_OVERVIEW: NCI tumour cell line growth inhibition, 48 h
Please enter t where TGI is greater than or equal to 30 µM, and f where it is lower.

Would you please look over these solved cases?
Clc1ccccc1C1N2CCCCC2[C@@H]2c3[nH]c4ccccc4c3CCN12 (stereo not given in full) ... t
N#CC(c1ccccc1)N(CCc1ccccc1)C(=O)c1ccccc1 (stereo not given) ... t
CN(C)Cc1cc(C(=O)/C=C/c2ccc(Br)cc2)cc(CN(C)C)c1O ... f

query: Evaluate O=C1N(CN2CCOCC2)CN(CN2CCOCC2)C(=O)N1Cc1ccc(-c2ccc(CN3C(=O)N(CN4CCOCC4)CN(CN4CCOCC4)C3=O)cc2)cc1 : TGI at minimum 30 µM?
result: f

query: Entry Nc1ccc(-c2ccc(Nc3cc(S(=O)(=O)O)c(N)c4c3C(=O)c3ccccc3C4=O)cc2)c(S(=O)(=O)O)c1 : is its TGI no less than 30 µM?
result: t

query: Say whether CC(=O)c1cccc(Nc2c3ccccc3nc3occc23)c1 shows TGI of 30 µM or more.
result: f

query: Dear colleague, could you confirm whether FC(F)(F)c1[nH]ncc1-c1nc2c(N3CCCCC3)cc3[nH]ncc3c2c2c1CCCC2 has TGI at or above 30 µM?
result: f

query: Dear colleague, could you confirm whether CC(OC1CC(=O)CC2C(=O)C=CC(=O)C12)c1ccccc1 (stereo not given) has TGI at or above 30 µM?
result: t

query: Threshold query (TGI >= 30 µM) on CN(C)CCN1C(=O)c2cccc3c(N)ccc(c23)C1=O
result: f

----------
TGI values, listed per item
- Test system: SK-MEL-28 melanoma
- ASSAY_OVERVIEW: NCI tumour cell line growth inhibition, 48 h
Record the value in µM, omitting the unit from your answer.

// solved cases for TGI follow
CCN1/C(=C/C=C/C=C/c2sc3ccccc3[n+]2CC)Sc2ccccc21 ... 2.75
CCOC(=O)/C(=C\c1ccnc2ccccc12)P(=O)(OCC)OCC ... 3.35
COc1cc[c]([Sb]([Br])([CH]=C(C)C)([CH]=C(C)C)[CH]=C(C)C)cc1 ... 93.5
COc1ccc(-c2nn(-c3ccc(NC(=O)Nc4ccc(Cl)c(Cl)c4)cc3)cc2-c2ccncc2)cc1Cl ... 68.2
CCOC(=O)/C(=C/c1ccccc1)C(=O)c1ccccc1 ... 6.59
CCN1CCC2(CC1)NC(=O)c1c(c3ccc(Cl)c(Cl)c3n1C)C2C#N (stereo not drawn) ... 3.07

Noted for O=C(Nc1ccc(Cl)cc1F)c1cc(F)ccc1O : its TGI reads 2.63

For record N#Cc1nc(Sc2cnsn2)c(Sc2cnsn2)nc1C#N the listed TGI is 53.6

response.value for Cc1cc(C)c(S(=O)(=O)N(CCCCCCN)OCCCN)c(C)c1 (field: TGI) = 36.1

Field TGI (entry COc1cc(CNc2nc3ccccc3n2Cc2ccccc2)cc(CN2CCOCC2)c1O ) reads 34.6

----------
- System: SR leukemia
- ASSAY_OVERVIEW: NCI tumour cell line growth inhibition, 48 h
ASSAY_ENDPOINT: TGI

Guide cases for TGI, answers given:
COc1cc(C(C#N)NNC(=O)Cc2ccccc2)cc(OC)c1OC (stereo unspecified) ... > 100 µM
Cc1ccc(-c2cn3c(nc4ccccc43)c(-c3ccccc3)n2)cc1 ... > 100 µM
CC(=O)Nc1ccc(-c2nc3ccccc3s2)cc1Cl ... > 100 µM

Below: the item to evaluate.
Entry under test: CC1=C(C(=O)NNC(=O)C(N)=O)CC(C(=O)NNC(=O)C(N)=O)=C(C)N1 . Its TGI was > 100 µM
